Parameter pIC50: see the listing below.
System: Aβ 42 production
ASSAY REMARKS: Quantification of Aβ Peptide in Culture of Neurons from Rat Fetus Brain
Assay type: cell-based
STATED CONDITIONS: Neuron, 72 h; rat primary neuronal culture (cerebral cortex, embryonic day 18 Wistar rats); medium collected three days after addition of the compound; Aβ ELISA; read-out: Effect of reducing Aβ 42 production IC50
In plain terms, pIC50 is the concentration in mol/L turned into minus its base-10 logarithm.

Below, each entry is followed by its recorded pIC50 result.
Task: Quote pIC50 with test system Aβ 42 production for COc1cc(/C=C/c2nc(-c3ccc(F)cc3)c(CO)[nH]2)ccc1-n1cnc(C)c1
Result: 7.17

Task: Quote pIC50 with test system Aβ 42 production for COc1cc(/C=C/c2nc(C(C)c3ccccc3)n(C)n2)ccc1-n1cnc(C)c1 (stereo not drawn)
Result: 7.07

***
Task: Quote pIC50 with test system Aβ 42 production for COc1cc(/C=C/c2nc(-c3ccc(F)cc3)c[nH]2)ccc1-n1cnc(C)c1
Result: 7.35
